Experiment: protein stability index of a GFP-peptide fusion (GPS, HEK-293T) (PSI 1-6); higher = more stable;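 note: 24-mer peptide tiles fused after GFP, lentivirally expressed, FACS-sorted into six equal bins by GFP/DsRed ratio, decoded by Illumina sequencing, PSI is the read-weighted mean bin number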
Conditions: treatment: MLN4924 1 uM, 8 h; c terminus: a fixed tail appended
Each entry gets f if its protein stability index stays under 4, and t if its protein stability index is 4 or above.

In: API: above_or_equal(metric=protein stability index, cutoff=4) for item QEYESIDPGQQFTWEHSNLEVNKP [PTPRD]
Out: t

----------
Assay: protein stability index of a GFP-peptide fusion (GPS, HEK-293T) (PSI 1-6); higher = more stable
Details: treatment: DMSO; c terminus: a fixed tail appended
Documented protein stability index across a set of sequences
Write the value as a bare number.

Illustrative cases are given below, each with its answer.
Seq string	Measurement
PRRLGRLKYQAPDIDVQLSSELTD [NOP53]	4.11
DEDDSTSRFSSSTEQSSASRLMRR [DVL3]	5.28
PFKRFLRKKSKPKKCVKKFVEYCD [SMOC2]	2.45
PYQCSQCSKSYSRRSFLIEHQRSH [ZSCAN9]	4.3

In: Output measured protein stability index for this item: DMRRDEEGSLCAAHLPKAQLSGYA [FBF1]
Out: 4.12

In: Please supply the value of reported protein stability index for the item DEPQETAYRTQVSSCCLHICQGIR [PKD2L1]
Out: 2.8

In: Name the recorded protein stability index of the item AQEDSLNKLALQYGCKVADIKKVN [LYSMD4] in your answer.
Out: 3.41

In: Tell me its protein stability index given DDLVPKGKKFLLLSINRYERKKNL [ALG2] as the entry.
Out: 2.58

In: Input ASWYSLSKGMQDFNYLHTNCFEIT [CPN1] , output reported protein stability index.
Out: 2.56

----------
Entries and their protein stability index
Experiment: protein stability index of a GFP-peptide fusion (GPS, HEK-293T) (PSI 1-6); higher = more stable
Conditions: treatment: DMSO; c terminus: a fixed tail appended
Answer using only a numeral; do not append any unit.

Seq string	Measured parameter	Measurement
QRARKEREKEDYLHLKRQPKRRWL [RHOBTB2]	protein stability index	4.05
MLKIHRSDPQLIVQLRFCGRQPCG [TRADD]	protein stability index	2.46
DSDSEKQQQIHHIKNLYAFNLFCQ [VPS39]	protein stability index	2.58

In: Note protein stability index for the sequence shown: LLHSRNEGVATYAAAVLFRMSEDK [CTNNB1]
Out: 2.9

In: Quickly give me recorded protein stability index for GYPPFCSETPQETYRKVMNWKETL [STK38L]
Out: 2.88

----------
Assay: protein stability index of a GFP-peptide fusion (GPS, HEK-293T) (PSI 1-6); higher = more stable
Conditions: treatment: MLN4924 1 uM, 8 h; c terminus: a fixed tail appended
Measured parameter: protein stability index
Give only the figure.

Seq string	protein stability index
CINRFQQVESRWGYSGTSDRIRFT [BTBD1]	2.07

In: Supply reported protein stability index belonging to this sequence: LERGRASLIFSLKNEVGGLIKALK [TPH1]
Out: 2.36

In: Given the sequence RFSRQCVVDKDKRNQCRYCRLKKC [HNF4A] , write its reported protein stability index.
Out: 3.5

In: Return value of protein stability index for input TSCIVIILIIISVIVQIKQPRKKY [NETO1] , no commentary.
Out: 3
